Ref: PubChem BioAssay

Assay: small-molecule binders of probe aInhba, primary screen, biochemical, small-molecule microarray, 635/667 nm fluorescence (AID 1148);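 note: score merges 667nm spot fluorescence with signal-to-noise for antibody binding to printed compounds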
Settings: higher = more signal
composite z-score of -0.02 or higher: label 1. Under -0.02: label 0.

Worked examples, 5 compounds total:
Cc1ccc(S[C@]2(C(=O)NCC(C)C)CC(=O)N(C3Cc4ccccc4C3)[C@@H]2c2ccc(CO)cc2I)cc1 ... label 0
CCN(CC)c1ccc(N2CC=CC34O[C@@H]5/C=C\CCC(C)OC(=O)C5[C@H]3C(=O)N(C(C)CO)[C@@H]4C2=O)cc1 (stereo not given in full) ... label 0
O=C1O[C@H](c2ccccc2)[C@H](c2ccccc2)N2[C@H]1[C@@H](C(=O)Nc1nc3ccccc3s1)[C@]1(C(=O)Nc3ccc(C#CC4=CCCCC4)cc31)[C@H]2c1ccc(O)cc1 ... label 0
CC(C)C(=C=CC[C@H](O)c1cccc(OCCO)c1)CCO ... label 0
CC(C)C[C@@H]1NC(=O)[C@@]23C(=O)N[C@@H](Cc4ccccc4)C2[C@H](C)[C@@]2(C)O[C@H]2C3/C=C/C/C=C\CNC(=O)[C@@H](C)NC1=O (stereo not given in full) ... label 0

Record `C=CCNC(=O)[C@H]1[C@@H]2C(=O)O[C@@H](c3ccccc3)[C@@H](c3ccccc3)N2[C@@H](c2ccc(O)cc2)[C@]12C(=O)N(C(=O)OCCOC)c1ccc(C#CCC(C(=O)OC)C(=O)OC)cc12` ; criterion: composite z-score no lower than -0.02. Met?
label 0

Record COc1cc(NN2C(C(O)C3CCCCC3)C=CC3C(=O)N(C)C(=O)C32)cc(OC)c1OC (stereo not given) ; criterion: composite z-score no lower than -0.02. Met?
label 1

Record `C=C/C=C/[C@@H]1C(=C)CN([C@@H](Cc2ccccc2)C(=O)OC)[C@H]1[C@@H](O)Cc1ccccc1` ; criterion: composite z-score no lower than -0.02. Met?
label 0

Record `O=C1N[C@@H](Cc2ccccc2)C(=O)N2[C@@H]1C[C@@H](C(=O)O)[C@H]2c1ccc(O)cc1` ; criterion: composite z-score no lower than -0.02. Met?
label 1

Record O=C1OCCC/C=C\[C@H]2OC34C=CCN(c5ccc6ccccc6c5)C(=O)[C@H]3N(CCCO)C(=O)[C@@H]4C12 (stereo not given in full) ; criterion: composite z-score no lower than -0.02. Met?
label 0
